Overview of recorded CDK2 HIBIT Protein Quantification Maximum for various compounds
# TARGET: CDK2 (Homo sapiens)
# Construct: host or cells: HEK293-CDK2-Hibit
# ASSAY NOTES: HiBit Assay Protocol for CDK2 (HIBIT protein quantification, degradation)
# Type: cell-based
# REPORTED CONDITIONS: HEK293-CDK2-Hibit cells, compound treatment for 6 hours
# unit: % | format: bare number

Past entries and their recorded results:
{"COMPOUND": "Cc1cc(CN2CCC(c3ccc4c(N5CCC(=O)NC5=O)nn(C)c4c3)CC2)cc(S(=O)(=O)N2CCC(Nc3ncc4c(n3)N([C@@H]3CCC[C@@H](O)C3)C(=O)C43CC3)CC2)c1 [Compound 167]", "OBSERVED": 70}
{"COMPOUND": "CC1CCCC1N1C(=O)C2(CC2)c2cnc(NC3CCN(S(=O)(=O)N4CC5(CN(C(=O)CCc6ccc7c(c6)n(C)c(=O)n7C6CCC(=O)NC6=O)C5)C4)CC3)nc21 (stereo not shown) [Compound 58]", "OBSERVED": 12}
{"COMPOUND": "CC1CCCC1N1C(=O)C2(CC2)c2cnc(NC3CCN(S(=O)(=O)N4CCC5(CCN(C(=O)CCCc6ccc7c(c6)n(C)c(=O)n7C6CCC(=O)NC6=O)C5)C4)CC3)nc21 (stereo not shown) [Compound 129]", "OBSERVED": 51}
{"COMPOUND": "CC1CCCC1N1C(=O)C2(CC2)c2cnc(NC3CCN(S(=O)(=O)N4CCC5(CCCN5C(=O)CCCc5cccc6c5n(C)c(=O)n6C5CCC(=O)NC5=O)C4)CC3)nc21 (stereo not shown) [Compound 25]", "OBSERVED": 29}
{"COMPOUND": "Cn1nc(N2CCC(=O)NC2=O)c2ccc(C3CCN(Cc4cccc(S(=O)(=O)N5CC[C@@H](Nc6ncc7c(n6)N([C@@H]6CCC[C@@H](O)C6)C(=O)C76CC6)[C@@H](F)C5)c4)CC3)cc21 [Compound 155]", "OBSERVED": 19}
{"COMPOUND": "CC1CCCC1N1C(=O)C2(CC2)c2cnc(NC3CCN(S(=O)(=O)N4CC5(CCCN(C6CCCN(c7cccc8c7n(C)c(=O)n8C7CCC(=O)NC7=O)C6)C5)C4)CC3)nc21 (stereo not shown) [Compound 135]", "OBSERVED": 54}
{"COMPOUND": "Cn1nc(N2CCC(=O)NC2=O)c2ccc(C3CCN(Cc4cc(S(=O)(=O)N5CCC(Nc6ncc7c(n6)N([C@@H]6CCC[C@@H](O)C6)C(=O)C76CC6)CC5)ccn4)CC3)cc21 [Compound 160]", "OBSERVED": 75}
{"COMPOUND": "C[C@H]1CN(c2ccc3c(N4CCC(=O)NC4=O)nn(C)c3c2)CCN1[C@@H](C)c1cccc(S(=O)(=O)N2CC[C@H](Nc3ncc4c(n3)N([C@@H]3CCC[C@@H](O)C3)C(=O)C43CC3)[C@H](F)C2)c1 [Compound 194]", "OBSERVED": 94}
{"COMPOUND": "Cn1nc(N2CCC(=O)NC2=O)c2cccc(C3CCN(Cc4cccc(S(=O)(=O)N5CCC(Nc6ncc7c(n6)N([C@H]6CCC[C@H](O)C6)C(=O)C76CC6)CC5)c4)CC3)c21 (stereo in doubt) [Compound 146]", "OBSERVED": 76}

Continue with the next compound.
INPUT: What value of CDK2 HIBIT Protein Quantification Maximum has been recorded for this entry: CC1CCCC1N1C(=O)C2(CC2)c2cnc(NC3CCN(S(=O)(=O)N4CC5(CN(C(=O)CCCCc6cccc7c6n(C)c(=O)n7C6CCC(=O)NC6=O)C5)C4)CC3)nc21 (stereo not shown) [Compound 97]
OUTPUT: 41
